format: physicochemical; conditions: FigS12 panel B
QUANTITY: ThT Cat,

Consider the following illustrative entries.
SUBSTANCE | ThT Cat,
EIEIEIEI | 0 (ThT-inactive (N-Fold <2))
KVKVKVQV | 1 (ThT. Cat is 1, if Rel. ThT >2)
SISISRRI | 0 (ThT-inactive (N-Fold <2))
KYKYQY | 1 (ThT. Cat is 1, if Rel. ThT >2)
KVKVQVVV | 0 (ThT-inactive (N-Fold <2))
PPFHPPPFHP | 0 (ThT-inactive (N-Fold <2))
KIKIKIKI | 1 (ThT. Cat is 1, if Rel. ThT >2)
CKAKAQANM | 0 (ThT-inactive (N-Fold <2))

Task item: Entry `CRFRVPF` : reported ThT Cat, = ?
Reply: 0 (ThT-inactive (N-Fold <2))

Task item: Entry `KIKQIIN` : reported ThT Cat, = ?
Reply: 0 (ThT-inactive (N-Fold <2))

Task item: Entry `NMWQKAKAQA` : reported ThT Cat, = ?
Reply: 1 (ThT. Cat is 1, if Rel. ThT >2)

Task item: Entry `NMWQKIKQII` : reported ThT Cat, = ?
Reply: 0 (ThT-inactive (N-Fold <2))

Task item: Entry `KIEIQINM` : reported ThT Cat, = ?
Reply: 0 (ThT-inactive (N-Fold <2))

Task item: Entry `KIRGKFEKED` : reported ThT Cat, = ?
Reply: 1 (ThT. Cat is 1, if Rel. ThT >2)

Task item: Entry `KLKLKLQL` : reported ThT Cat, = ?
Reply: 0 (ThT-inactive (N-Fold <2))

Task item: Entry `CEFEFQF` : reported ThT Cat, = ?
Reply: 0 (ThT-inactive (N-Fold <2))

Task item: Entry `EFEFQF` : reported ThT Cat, = ?
Reply: 1 (ThT. Cat is 1, if Rel. ThT >2)

Task item: Entry `HRRHFRHKITKKK` : reported ThT Cat, = ?
Reply: 0 (ThT-inactive (N-Fold <2))

Task item: Entry `QCKAKAQA` : reported ThT Cat, = ?
Reply: 0 (ThT-inactive (N-Fold <2))

Task item: Entry `TKTLTKTL` : reported ThT Cat, = ?
Reply: 0 (ThT-inactive (N-Fold <2))

Task item: Entry `KVKGVGK` : reported ThT Cat, = ?
Reply: 0 (ThT-inactive (N-Fold <2))

Task item: Entry `FKFDKFKFDK` : reported ThT Cat, = ?
Reply: 0 (ThT-inactive (N-Fold <2))

Task item: Entry `KWKWQW` : reported ThT Cat, = ?
Reply: 0 (ThT-inactive (N-Fold <2))

Task item: Entry `KVKVQVV` : reported ThT Cat, = ?
Reply: 0 (ThT-inactive (N-Fold <2))

----------
# reported viability 6.5 µM; entries follow
Test system: TZM-bl cells
Format: cell-based
Conditions: CellTiter-Glo, peptide 6.5 µM, mean of n = 3 replicates
Procedure: The cell viability after addition of peptides to TZM–bl cells was studied via the CellTiter–Glo assay. To this end, 10,000 cells were seeded and on the next day serial diluted peptides were added. […] After 10 min 50 µL was transferred to white microplate and luminescence was recorded by Orion microplate luminometer. […] Figure S 2 Cell Viability normalized to 100% metabolic activity as determined by CellTiterGlo Assay of 57 representatively selected peptides from the library. […]
Lab note: write the figure by itself, no unit.

Consider the following illustrative entries.
SUBSTANCE | QUANTITY | VALUE OBSERVED
KIKIKIKIWWWW [TM12] | viability 6.5 µM | 86.48
RGDKIKIQINMWQ [MG9a] | viability 6.5 µM | 88.59
KIKQIINM [JGA2] | viability 6.5 µM | 101.1
CKFKQFFNM [CK14] | viability 6.5 µM | 106.7
KFKFQFFF [TG12] | viability 6.5 µM | 97

Task item: Entry KIKQIINMWQ [JG2] : reported viability 6.5 µM = ?
Reply: 83.88

Task item: Entry HIHIQIC [CN12] : reported viability 6.5 µM = ?
Reply: 101.2

Task item: Entry RGDCKFKFQF [TM64/ CN15] : reported viability 6.5 µM = ?
Reply: 101

Task item: Entry CQFQFQF [QBL4] : reported viability 6.5 µM = ?
Reply: 99.59

Task item: Entry CKFKFQF [BL4] : reported viability 6.5 µM = ?
Reply: 84.09

Task item: Entry QCKIKIQINMWQ [EF-C opt] : reported viability 6.5 µM = ?
Reply: 85.71

Task item: Entry HHHHKIKIKIKIYYYY [TM6] : reported viability 6.5 µM = ?
Reply: 86.78

Task item: Entry KAKAQANMWQ [JG3] : reported viability 6.5 µM = ?
Reply: 103.1

Task item: Entry CKWKWQW [KB4] : reported viability 6.5 µM = ?
Reply: 96.91

Task item: Entry QCKIKIQI [CK3] : reported viability 6.5 µM = ?
Reply: 91.95

Task item: Entry QCKFKFQFNMWQ [CK7] : reported viability 6.5 µM = ?
Reply: 88.11

Task item: Entry KIKIKIQINMWQ [VH9] : reported viability 6.5 µM = ?
Reply: 82.19

----------
assay: Aggregate analysis by widefield fluorescence microscopy; type: physicochemical; details: Fig S8 panels A, C
Checkbox rule: Log 10 Number of aggregates in 3 * (1330 µm *1330 µm) lower than 2 = 1 (yes); Log 10 Number of aggregates in 3 * (1330 µm *1330 µm) not lower than 2 = 0 (no).

SUBSTANCE | CATEGORY
CSISIQI [TM141] | 0 (no)
HIHIQIC [CN12] | 1 (yes)

Switching to the query record.
Task item: Here's an entry: CHLHLQL [CN9] . Is its Log 10 Number of aggregates in 3 * (1330 µm *1330 µm) below 2?
Reply: 1 (yes)

----------
system: TZM-bl cells; type: cell-based; conditions: CellTiter-Glo, peptide 6.5 µM, mean of n = 3 replicates
Checkbox rule: viability 6.5 µM lower than 90 = Fulfilled; viability 6.5 µM not lower than 90 = Not fulfilled.

Reference set (5 entries):
SUBSTANCE | CATEGORY
HHHHKAKAKAKAYYYY [TM10] | Not fulfilled
RGEKIKIQINM [CN18] | Fulfilled
RGDSGGGGGGKIKIQIC [TM114 / RC17] | Fulfilled
KFKFQF [JJA6] | Not fulfilled
CKIKQIINMWQ [MG5a / CK17] | Fulfilled

Task item: Here's an entry: CEFEFQFNMWQ [TM140] . Is its viability 6.5 µM below 90?
Reply: Not fulfilled

----------
assay: Turbidity, derived count rate of scattered light; format: physicochemical; conditions: derived count rate of scattered light; mean, std deviation in separate column
QUANTITY: Zeta Count Rate / kcps
Please answer in the form of a number followed by its unit of measurement.

Consider the following illustrative entries.
SUBSTANCE | VALUE OBSERVED
QCKIKIQI [CK3] | 12426.83333 kcps
QCKIKIQINMWQ [EF-C opt] | 8271 kcps
KFKFQFFF [TG12] | 3039 kcps

Task item: Entry RGDKIKIQI [MG14] : reported Zeta Count Rate / kcps = ?
Reply: 298.1 kcps

Task item: Entry KIKIQINMWQRGD [VH17-II] : reported Zeta Count Rate / kcps = ?
Reply: 2783 kcps

Task item: Entry CKIKIQINMW [TM86] : reported Zeta Count Rate / kcps = ?
Reply: 4915 kcps

Task item: Entry KFKFQFNMWQ [JG4] : reported Zeta Count Rate / kcps = ?
Reply: 734.6 kcps

Task item: Entry KFKFQFN [BL7] : reported Zeta Count Rate / kcps = ?
Reply: 50.7 kcps

Task item: Entry CKFKFQFNM [BL3] : reported Zeta Count Rate / kcps = ?
Reply: 2224 kcps

----------
experiment: Turbidity, derived count rate of scattered light; assay type: physicochemical; details: derived count rate of scattered light (turbidity)
Category | rule: reported Count Rate within range, see range A: < 80; range B: ≥ 80 and < 4000; range C: ≥ 4000

Reference set (5 entries):
CHAIN SEQUENCE | CATEGORY
CKFKFQFNMWQ | range B
KKFQKKFQ | range A
HHHHKIKIQINMYYYY | range C
KFKFQFFF | range B
KNERIKNERI | range B

Task item: Into which bin does this sequence go? `CKFKQFFNM`
Reply: range C

Task item: Into which bin does this sequence go? `KAKAQANM`
Reply: range A

Task item: Into which bin does this sequence go? `KAKAKAQA`
Reply: range A

Task item: Into which bin does this sequence go? `CKIKIQINM`
Reply: range C

----------
tested on: HIV-1 infection of TZM-bl cells; test: HIV-1 infectivity enhancement assay, β-galactosidase luminescence; type: cell-based; conditions: Feb2021; Log10 of infectivity relative to EF-C
# reported Log10 of Rel to EFC (Feb2021); entries follow
Lab note: write the figure by itself, no unit.

SUBSTANCE | VALUE OBSERVED
MKIKIQINMWQ [TM52] | -0.378

Task item: Entry RGDKIKIQIC [MG7/CN1] : reported Log10 of Rel to EFC (Feb2021) = ?
Reply: -0.07993

Task item: Entry CKIKIQINM [MG2] : reported Log10 of Rel to EFC (Feb2021) = ?
Reply: 0.2012

Task item: Entry QCKFKFQF [CK9] : reported Log10 of Rel to EFC (Feb2021) = ?
Reply: -0.1152

Task item: Entry KFKFQF [JJA6] : reported Log10 of Rel to EFC (Feb2021) = ?
Reply: -1.213

Task item: Entry KFKFQFW [TM71] : reported Log10 of Rel to EFC (Feb2021) = ?
Reply: -0.7899

Task item: Entry KIKIKIKIYYYY [JR7] : reported Log10 of Rel to EFC (Feb2021) = ?
Reply: 0.1402

Task item: Entry QCKIKQII [CK6] : reported Log10 of Rel to EFC (Feb2021) = ?
Reply: -2.189

Task item: Entry CKIKIQINMWQ [MG1] : reported Log10 of Rel to EFC (Feb2021) = ?
Reply: -0.155
